# testedTarget: T1, QTGG, short SUMO-1 remnant after trypsin and Glu-C digestion
# T1 sequence (peptide): QTGG
# testMethodNotes: ITC
Bridge positions count the residues as written; N and C are the ends. Ends that are not written are not given here.
endpoint: Kd
Answer with the value and then the unit.

binder	Kd
CMTPNPTTC (disulfide 1-9) [CP-2 (…)]	1800 nM

Exercise: Fill in the blank: the reported Kd of CPEKWLGTC (disulfide 1-9) [CP-1 (…), cystine-linked cyclic peptide] is ____.
Key: 71.8 nM

Reference source for all entries: paper PMC11712212
